Assay: NCI Yeast Anticancer Drug Screen. Data for the sgs1 mgt1 strain (AID 161);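 note: 0% = growth of cultures given vehicle only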
Conditions: S. cerevisiae sgs1 mgt1 strain, at 5.0 µM (retest, dose inferred, filed as 0.5), stronger effect = higher value
This is part of a sample that, as a whole, favours compounds with a hit. Of some 79,000 tested, about 15% had one in any assay.

[
  {
    "COMPOUND": "CC(C)=CCC/C(=C/CC/C(C)=C/CCc1ccoc1)C(=O)O",
    "OUTPUT UNIT": "%",
    "growth inhibition": -9
  },
  {
    "COMPOUND": "CN(C)C(=S)/N=c1\\ss/c(=N\\S(=O)(=O)c2ccccc2)n1-c1ccccc1",
    "OUTPUT UNIT": "%",
    "growth inhibition": -2
  },
  {
    "COMPOUND": "COC(=O)c1c(COC(=O)NC(C)C)c2n(c1C)CS(=O)(=O)C2",
    "OUTPUT UNIT": "%",
    "growth inhibition": -3
  },
  {
    "COMPOUND": "COc1cc(C(=O)C=[N+]=[N-])c([N+](=O)[O-])c(OC)c1OC",
    "OUTPUT UNIT": "%",
    "growth inhibition": 19
  },
  {
    "COMPOUND": "Cc1cc(O)ccc1SC#N",
    "OUTPUT UNIT": "%",
    "growth inhibition": -13
  },
  {
    "COMPOUND": "O=C(O)c1cccc(S(=O)(=O)NN2C(=O)CSC2c2c(O)ccc3ccccc23)c1 (stereo unspecified)",
    "OUTPUT UNIT": "%",
    "growth inhibition": 2
  },
  {
    "COMPOUND": "CCN1C2=NCCN2S(=O)(=O)c2ccccc21",
    "OUTPUT UNIT": "%",
    "growth inhibition": 8
  },
  {
    "COMPOUND": "Cc1ccc(C)c(C2CCCCC2O)c1 (stereo unspecified)",
    "OUTPUT UNIT": "%",
    "growth inhibition": -1
  },
  {
    "COMPOUND": "O=C1CN(c2cccc(Cl)c2)C(=O)CN1/N=C/c1ccc[nH]1",
    "OUTPUT UNIT": "%",
    "growth inhibition": 10
  },
  {
    "COMPOUND": "CCN(CC)CC(O)CNc1ccc(NCC(O)CCl)c2c1C(=O)c1ccccc1C2=O (stereo unspecified)",
    "OUTPUT UNIT": "%",
    "growth inhibition": 98
  },
  {
    "COMPOUND": "O=S(=O)(Nc1nccs1)c1ccc(N=Cc2cn(Cc3ccccc3)c3ccccc23)cc1",
    "OUTPUT UNIT": "%",
    "growth inhibition": 3
  }
]

====

Assay: NCI Yeast Anticancer Drug Screen. Data for the cln2 rad14 strain (AID 165);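 note: 0% = growth equal to vehicle treated cultures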
Settings: S. cerevisiae cln2 rad14 strain, at 50.0 µM, stronger effect = higher value
This is part of a sample that, as a whole, favours compounds with a hit. Of some 79,000 tested, about 15% had one in any assay.
QUANTITY NAME: growth inhibition (%)

[
  {
    "COMPOUND": "c1ccc(CCNCc2ccco2)nc1",
    "MEAS VALUE": 23.6
  },
  {
    "COMPOUND": "CCCCCCCCCCCCCCCCC#N",
    "MEAS VALUE": 16.2
  },
  {
    "COMPOUND": "CCCCCCCCCCCCCCCCN(C)c1ccc(S(=O)(=O)O)cc1[N+](=O)[O-]",
    "MEAS VALUE": 68.6
  },
  {
    "COMPOUND": "O=C(O)C1(Cc2ccc3c(c2)CCC3)Cc2ccccc2C1",
    "MEAS VALUE": 89
  },
  {
    "COMPOUND": "O=c1oc2c(-c3ccccc3)cccc2c(O)c1-c1ccccc1",
    "MEAS VALUE": 33
  },
  {
    "COMPOUND": "O=[N+]([O-])c1ccccc1NC1CCN(CCCC2(c3ccc(F)cc3)OCCO2)CC1",
    "MEAS VALUE": 93.3
  },
  {
    "COMPOUND": "Clc1ccc(C(c2ccc(Cl)cc2)c2cncnc2)cc1",
    "MEAS VALUE": 89.2
  },
  {
    "COMPOUND": "Cc1ccc(C2=C(C#N)C(c3ccccc3)C(C#N)=C(N)O2)cc1 (centres undefined)",
    "MEAS VALUE": 98.9
  },
  {
    "COMPOUND": "FC(F)(F)c1ccccc1NC(=S)SCc1ccc2c(c1)OCO2",
    "MEAS VALUE": 98
  },
  {
    "COMPOUND": "COc1cc(-c2oc(C=Nc3ccccc3)c([N+](=O)[O-])c2-c2ccc(O)c(OC)c2)ccc1O",
    "MEAS VALUE": -18.1
  },
  {
    "COMPOUND": "Clc1ccccc1/C=C/c1ccccn1",
    "MEAS VALUE": 16.2
  },
  {
    "COMPOUND": "CCCCCCCCCN1CCNC1=S",
    "MEAS VALUE": 0.9
  },
  {
    "COMPOUND": "CC(C)(C)c1cc2c(c(C(C)(C)C)c1O)CC(=O)O2",
    "MEAS VALUE": 53.8
  },
  {
    "COMPOUND": "COc1c2c(cc3c1c(=O)c1ccccc1n3C)OCO2",
    "MEAS VALUE": -45.8
  },
  {
    "COMPOUND": "CC(=O)Nc1cc(Cl)c2c(c1)C(=O)c1ccccc1-2",
    "MEAS VALUE": -23.4
  },
  {
    "COMPOUND": "N#CC12CC3=C(N=C1NC1=C(CCc4ccccc41)C2)c1ccccc1CC3 (centres undefined)",
    "MEAS VALUE": 17.9
  },
  {
    "COMPOUND": "CC(C)(C)OC(=O)Nc1cccc(Cl)c1",
    "MEAS VALUE": 2.9
  },
  {
    "COMPOUND": "COc1ccc(N=NN(C)C)cc1",
    "MEAS VALUE": 76.5
  },
  {
    "COMPOUND": "O=C1C=CC(=O)N1c1cccc([N+](=O)[O-])c1",
    "MEAS VALUE": 99.7
  },
  {
    "COMPOUND": "CC1(C)CC(=O)C(c2ccccc2[N+](=O)[O-])=C(O)C1",
    "MEAS VALUE": 90.3
  },
  {
    "COMPOUND": "Clc1ccccc1/C=C/c1ccnc2ccccc12",
    "MEAS VALUE": 96.8
  },
  {
    "COMPOUND": "CCCCCCCCCCCCCCCCCCOC(=O)Nc1ccc(C)c(NC(=O)OCCCCCCCCCCCCCCCCCC)c1",
    "MEAS VALUE": 26.4
  },
  {
    "COMPOUND": "Cc1n(CC(C)C)c2c([n+]1CC(=O)c1ccc([N+](=O)[O-])cc1)C(=O)c1ccccc1C2=O",
    "MEAS VALUE": 89.8
  },
  {
    "COMPOUND": "COc1ccc(NCCN(C)C)c2c(=O)c3ccccc3sc12",
    "MEAS VALUE": -1.05
  }
]
